Target: DD(E) soluble fibrin-derived polypeptide (UniProt P02671)
Experiment: Kd against DD(E) target
pKd: −log10 of the molar value. Bridge positions count the residues as written; N and C are the ends. Ends that are not written are not given here.
pKd by entry:
endpoint: pKd

>>> obsvalue("ECPYGLCWIQ [modified TN6-6 polypeptide …]")
5.65
>>> obsvalue("H-LPCDYYGSCLD-NH2 (disulfide 3-9 (inferred)) [substituted peptide …]")
4.59
>>> obsvalue("WFHCPYDLCHIL (disulfide 4-9 (inferred)) [synthetic polypeptide …]")
5.58
